- Tested on: Mycobacterium avium
- PROCEDURE_SUMMARY: Minimum Inhibitory Concentration against clinical isolates of Mycobacterium avium complex ATCC 49601
- Assay type: functional
Reported MIC values for the following molecules.
Response body: numeric value in µg/mL, unit text excluded.

Consider the reported MIC for these molecules:
MOLECULE | MIC [µg/mL]
CCCCCC(C)(CCCC)OC(=O)c1cnc(Cl)cn1 (stereo not drawn) | 256
O=C(OCc1ccccc1)c1cnccn1 | 64
CCCCCCCCCCOC(=O)c1cnc(F)cn1 | 32
CCCCCCC(C)(C)OC(=O)c1cnc(Cl)cn1 | 64
CCCCOC(=O)c1cnc(Cl)cn1 | 128
CCCCCCCC(OC(=O)c1cnc(Cl)cn1)C(C)C (stereo not drawn) | 256

Lookup: Give its MIC value. Item: `CCCCCCCCOC(=O)c1cnc(Cl)cn1`
Found: 16

Lookup: Give its MIC value. Item: `CCCCCCOC(=O)c1cnc(F)cn1`
Found: 64

Lookup: Give its MIC value. Item: `COC(=O)c1cnc(F)cn1`
Found: 64

Lookup: Give its MIC value. Item: CCCCC(OC(=O)c1cnc(Cl)cn1)c1ccccc1 (stereo not drawn)
Found: 64

Lookup: Give its MIC value. Item: `CCCCCCCOC(=O)c1cnc(Cl)cn1`
Found: 16

Lookup: Give its MIC value. Item: CCCCCCC(C)OC(=O)c1cnc(F)cn1 (stereo not drawn)
Found: 64

Lookup: Give its MIC value. Item: `CCC(C)(CC)OC(=O)c1cnc(Cl)cn1`
Found: 256

Lookup: Give its MIC value. Item: CCCCCC(CC)OC(=O)c1cnc(Cl)cn1 (stereo not drawn)
Found: 256

Lookup: Give its MIC value. Item: `O=C(Oc1cccc2ccccc12)c1cnccn1`
Found: 64

Lookup: Give its MIC value. Item: `COC(=O)c1cnc(Cl)cn1`
Found: 64

Lookup: Give its MIC value. Item: CCCCCCCCCCC(OC(=O)c1cnc(Cl)cn1)C(C)(C)C (stereo not drawn)
Found: 256

Lookup: Give its MIC value. Item: `CCCCCC(C)(CCCCC)OC(=O)c1cnc(Cl)cn1`
Found: 64

Lookup: Give its MIC value. Item: `CCCCCCCCC(C)(C)OC(=O)c1cnc(Cl)cn1`
Found: 64

Lookup: Give its MIC value. Item: `CCCCCCCCCC(C)(C)OC(=O)c1cnc(Cl)cn1`
Found: 256

Lookup: Give its MIC value. Item: `CCCCCCCCCOC(=O)c1cnc(C)cn1`
Found: 32

Lookup: Give its MIC value. Item: `O=C(OCc1ccccc1)c1cnc(Cl)cn1`
Found: 4

Lookup: Give its MIC value. Item: `CCCCCCCCCCCOC(=O)c1cnc(Cl)cn1`
Found: 8

Lookup: Give its MIC value. Item: CCCCCCCCCC(C)OC(=O)c1cnc(Cl)cn1 (stereo not drawn)
Found: 16

###

- Test system: Mycobacterium avium
- PROCEDURE_SUMMARY: Minimum Inhibitory Concentration against clinical isolates of Mycobacterium avium complex ATCC 49601
- Type: functional
Reported MIC values for the following compounds.
Response body: numeric value in µg/mL, unit text excluded.

COMPOUND | UNITS_SYMBOL | REPORTED
CCCCCCCCC(CC)OC(=O)c1cnc(Cl)cn1 (stereo not drawn) | µg/mL | 32

Lookup: Give its MIC value. Item: `O=C(OCCc1ccc(Cl)cc1)c1cnc(Cl)cn1`
Found: 8

###

- System: Mycobacterium kansasii
- PROCEDURE_SUMMARY: Minimum Inhibitory Concentration against clinical isolates of Mycobacterium kansasii S
- Type: functional
Cut-off 2 µg/mL on MIC: below means yes, at or above means no.

Look over these answered cases.
MOLECULE | SYSTEM_NAME | ASSIGNED_CLASS
CC(C)COC(=O)c1cnc(Cl)cn1 | Mycobacterium kansasii | yes
CC(C)COC(=O)c1cnccn1 | Mycobacterium kansasii | no
O=C(Oc1ccc(F)cc1)c1cnccn1 | Mycobacterium kansasii | no

Lookup: Is MIC of CCCCCCCC(C)(CCCC)OC(=O)c1cnc(Cl)cn1 (stereo not drawn) strictly below 2 µg/mL?
Found: no

Lookup: Is MIC of `CCCCOC(=O)c1cnc(Cl)cn1` strictly below 2 µg/mL?
Found: yes

Lookup: Is MIC of `CC(C)(OC(=O)c1cnc(Cl)cn1)c1ccccc1` strictly below 2 µg/mL?
Found: no

Lookup: Is MIC of CCCCCCCCCCC(OC(=O)c1cnc(Cl)cn1)C(C)(C)C (stereo not drawn) strictly below 2 µg/mL?
Found: no

Lookup: Is MIC of CCCCCCCCC(CC)OC(=O)c1cnc(Cl)cn1 (stereo not drawn) strictly below 2 µg/mL?
Found: yes

Lookup: Is MIC of `CCCCCC(C)(CCCCC)OC(=O)c1cnc(Cl)cn1` strictly below 2 µg/mL?
Found: no

###

- System: Mycobacterium kansasii
- PROCEDURE_SUMMARY: Minimum Inhibitory Concentration against clinical isolates of Mycobacterium kansasii S
- Format: functional
MEASUREMENT_KIND: MIC (µg/mL)
Response body: numeric value in µg/mL, unit text excluded.

Consider the reported MIC for these molecules:
MOLECULE | MIC / µg/mL
Cc1ccc(C(C)OC(=O)c2cnc(Cl)cn2)cc1 (centres undefined) | 1
O=C(OCc1ccccc1)c1cnccn1 | 1
CCCCCCC(C)(CCCC)OC(=O)c1cnc(Cl)cn1 (centres undefined) | 4
CCCCCCCC(OC(=O)c1cnc(Cl)cn1)C(C)C (centres undefined) | 0.25
CCCCCCC(C)(CCCCC)OC(=O)c1cnc(Cl)cn1 (centres undefined) | 8

Lookup: So what MIC did `CCCCCCCCCC(C)(C)OC(=O)c1cnc(Cl)cn1` get with Mycobacterium kansasii?
Found: 0.5

Lookup: So what MIC did `O=C(OCc1ccccc1)c1cnc(Cl)cn1` get with Mycobacterium kansasii?
Found: 1

Lookup: So what MIC did `COC(=O)c1cnc(Cl)cn1` get with Mycobacterium kansasii?
Found: 2

Lookup: So what MIC did `CCCCCCCCC(C)(C)OC(=O)c1cnc(Cl)cn1` get with Mycobacterium kansasii?
Found: 1

Lookup: So what MIC did `COC(=O)c1cnc(C)cn1` get with Mycobacterium kansasii?
Found: 32

###

- Tested on: Mycobacterium avium
- PROCEDURE_SUMMARY: Minimum Inhibitory Concentration in clinical isolates against Mycobacterium avium complex ATCC 49601
- Assay type: functional
MEASUREMENT_KIND: MIC

COMPOUND | REPORTED
O=C(O)c1cnccn1 | > 1020 µg/mL
O=C(Oc1ccc(F)cc1)c1cnccn1 | 128 µg/mL

Lookup: Give its MIC value. Item: `O=C(O)c1cnc(Cl)cn1`
Found: > 1020 µg/mL

Lookup: Give its MIC value. Item: `Cc1cnc(C(=O)O)cn1`
Found: > 1020 µg/mL

Lookup: Give its MIC value. Item: NC(=O)c1cnccn1 [PYRAZINAMIDE]
Found: > 2050 µg/mL

###

- System: Mycobacterium kansasii
- PROCEDURE_SUMMARY: Minimum Inhibitory Concentration against clinical isolates of Mycobacterium kansasii S
- Format: functional
Cut-off 20 µg/mL on MIC: below means 1, at or above means 0.

Look over these answered cases.
COMPOUND | SYSTEM_NAME | ASSIGNED_CLASS
CCCCCCOC(=O)c1cnc(F)cn1 | Mycobacterium kansasii | 1
CC(C)(C)C(OC(=O)c1cnc(Cl)cn1)c1ccccc1 (configuration not stated) | Mycobacterium kansasii | 1
O=C(Oc1c(Br)cc(Br)cc1Br)c1cnccn1 | Mycobacterium kansasii | 0

Lookup: Is MIC of NC(=O)c1cnccn1 [PYRAZINAMIDE] strictly below 20 µg/mL?
Found: 0

Lookup: Is MIC of `CCC(C)(CC)OC(=O)c1cnc(Cl)cn1` strictly below 20 µg/mL?
Found: 1

Lookup: Is MIC of CCCCCCCCC(C)(CCCC)OC(=O)c1cnc(Cl)cn1 (configuration not stated) strictly below 20 µg/mL?
Found: 1

###

- Tested on: Mycobacterium kansasii
- PROCEDURE_SUMMARY: Minimum Inhibitory Concentration against clinical isolates of Mycobacterium kansasii S
- Format: functional
Cut-off 0.2 µg/mL on MIC: below means TRUE, at or above means FALSE.

COMPOUND | ASSIGNED_CLASS
CCCCCCC(C)OC(=O)c1cnc(Cl)cn1 (centres undefined) | TRUE

Lookup: Is MIC of `CCCCCCCCCOC(=O)c1cnc(Cl)cn1` strictly below 0.2 µg/mL?
Found: TRUE

Lookup: Is MIC of CCCCCC(CC)OC(=O)c1cnc(Cl)cn1 (centres undefined) strictly below 0.2 µg/mL?
Found: TRUE

Lookup: Is MIC of CCCCCCC(C)OC(=O)c1cnc(F)cn1 (centres undefined) strictly below 0.2 µg/mL?
Found: TRUE

###

- System: Mycobacterium avium
- PROCEDURE_SUMMARY: Minimum Inhibitory Concentration against clinical isolates of Mycobacterium avium complex ATCC 49601
- Format: functional
Reported MIC values for the following compounds.

COMPOUND | MIC
CCCCCCCC(C)(CCCC)OC(=O)c1cnc(Cl)cn1 (configuration not stated) | > 256 µg/mL

Note: attention shifts to another entry.
Lookup: Give its MIC value. Item: CCCCCCC(C)(CCCCC)OC(=O)c1cnc(Cl)cn1 (configuration not stated)
Found: > 64 µg/mL

Values from ChEMBL document CHEMBL1128446
